# test name: Aqueous solubility at pH 5.8
# Format: physicochemical
endpoint label: solubility (mg/mL)
Give just the numeric value; mg/mL need not be written.

Specify solubility for Cc1cc2c(F)c(Oc3ncnn4cc(OC[C@@H](C)OC(=O)C(C)N)c(C)c34)ccc2[nH]1 (single isomer, unassigned; 8) and stop. 73

###

# test name: Aqueous solubility at pH 6.5
# Type: physicochemical
endpoint label: solubility

Report solubility for Cc1cc2c(F)c(Oc3ncnn4cc(OC[C@@H](C)O)c(C)c34)ccc2[nH]1 < 1 µg/mL

###

# study target: Cytochrome P450 2D6 (Homo sapiens, UniProt P10635)
# Sequence (P10635 whole entry): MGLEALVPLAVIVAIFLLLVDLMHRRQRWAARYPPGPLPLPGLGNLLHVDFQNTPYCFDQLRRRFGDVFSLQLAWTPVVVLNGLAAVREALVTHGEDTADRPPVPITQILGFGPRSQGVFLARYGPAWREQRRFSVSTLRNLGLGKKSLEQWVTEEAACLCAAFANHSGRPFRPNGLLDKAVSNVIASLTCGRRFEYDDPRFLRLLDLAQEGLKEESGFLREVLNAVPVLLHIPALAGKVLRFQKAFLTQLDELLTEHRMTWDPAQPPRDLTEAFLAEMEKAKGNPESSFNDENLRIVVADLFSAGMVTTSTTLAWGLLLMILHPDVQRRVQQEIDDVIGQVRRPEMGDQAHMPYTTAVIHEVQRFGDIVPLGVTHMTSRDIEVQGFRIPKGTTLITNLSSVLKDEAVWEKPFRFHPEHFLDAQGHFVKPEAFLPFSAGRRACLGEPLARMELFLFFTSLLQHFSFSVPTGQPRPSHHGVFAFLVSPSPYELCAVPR
# pIC50 annotations
// pIC50: -log10(molar conc.)

Cc1cc2c(F)c(Oc3ncnn4cc(OC[C@@H](C)OC(=O)C(N)CC(C)C)c(C)c34)ccc2[nH]1 (single isomer, unassigned); 4.62

Next:
Provide only the value of recorded pIC50 for Cc1cc2c(F)c(Oc3ncnn4cc(OC[C@@H](C)OC(=O)CN)c(C)c34)ccc2[nH]1 4.92
